- ASSAY_SYSTEM: hKCNQ2/3 (stably transfected hKCNQ2/3 CHO-K1 cell line) (Homo sapiens, UniProt O43525+O43526)
- Construct: expressed in transfected cells; host or cells: CHO-K1
- RUN_DESCRIPTION: Voltage clamp (patch-clamp) measurements, current increase relative to retigabin
- Assay type: cell-based
- RUN_PARAMETERS: test substance 10 μM at −40 mV; current increase standardized to retigabin (10 μM) effect
Output schema: class label derived from Voltage clamp: relative efficacy with respect to retigabin [10 μM]. Mapping: one (below 0.4), two (0.4 to below 0.7), three (0.7 or more)

COMPOUND: CC(Nc1noc2ccccc12)c1ccc(SC(F)(F)F)cc1 (stereo not drawn) [Example 2]
DISCRETE_LABEL: one
--
COMPOUND: Cc1cc(C)cc(CNc2noc3c(F)cccc23)c1 [Example 167]
DISCRETE_LABEL: one
--
COMPOUND: COc1ccc(CNc2noc3cc(F)ccc23)cc1Br [Example 168]
DISCRETE_LABEL: one
--
COMPOUND: FC(F)(F)Sc1ccc(CNc2noc3ccccc23)cc1 [Example 160]
DISCRETE_LABEL: two
--
COMPOUND: FC(F)(F)Sc1ccc(CNc2noc3ccc(Br)cc23)cc1 [Example 176]
DISCRETE_LABEL: two
--
COMPOUND: CCCCc1ccc(CNc2noc3cc(Cl)ccc23)cc1 [Example 161]
DISCRETE_LABEL: two
--
COMPOUND: Fc1ccc2c(NCc3cccc(OCc4ccccc4)c3)noc2c1 [Example 173]
DISCRETE_LABEL: three
--
COMPOUND: Fc1ccc2onc(NCc3ccc(OC(F)(F)F)cc3)c2c1 [Example 159]
DISCRETE_LABEL: two
--
COMPOUND: COc1ccccc1NC(=S)Nc1noc2cccc(OC)c12 [Example 130]
DISCRETE_LABEL: one
--
COMPOUND: Cc1cc(C)cc(CNc2noc3cccc(N)c23)c1 [Example 174]
DISCRETE_LABEL: three
--
COMPOUND: CC(Nc1noc2ccccc12)c1ccc(C(F)(F)F)cc1 (stereo not drawn) [Example 1]
DISCRETE_LABEL: two
--
COMPOUND: CCCCc1ccc(CNc2noc3cccc(N)c23)cc1 [Example 175]
DISCRETE_LABEL: two
--
COMPOUND: Fc1cc(C(F)(F)F)ccc1CNc1noc2ccccc12 [Example 163]
DISCRETE_LABEL: three
--
COMPOUND: Fc1ccc2onc(NCc3ccc(SC(F)(F)F)cc3)c2c1 [Example 162]
DISCRETE_LABEL: three
--
COMPOUND: FC(F)(F)c1ccc(CNc2noc3ccccc23)cc1 [Example 152]
DISCRETE_LABEL: one
--
COMPOUND: N#Cc1cccc(NC(=S)Nc2noc3cc(F)ccc23)c1 [Example 112]
DISCRETE_LABEL: one
